Tested on: L1210 leukemia ip in BDF1 mice, survival T/C
Assay: NCI In Vivo Anticancer Drug Screen. Data for tumor model L1210 Leukemia (intraperitoneal) in B6D2F1 (BDF1) mice
Conditions: endpoint: mean survival time; dose: 400.0 mg/kg/injection; schedule: Q04DX002 (ip); vehicle: Klucel (hydroxypropylcellulose) (HPC); higher = longer survival
Method: The antitumor activity of compounds was measured in mice bearing transplantable tumors. Survival or tumor size were measured and the results are expressed as the measurement made in the treated group (T) divided by the measurement made in the vehicle treated control group (C). The tumor model used in this assay is L1210 Leukemia (intraperitoneal) in B6D2F1 (BDF1) mice
Inconclusive results and toxic doses are left out.
compounds and their reported T/C

Below are worked cases with known answers.
- compound: "NC(CSS(=O)(=O)O)=NCCCc1nc2ccccc2[nH]1"
  testedTarget: "L1210 leukemia ip in BDF1 mice, survival T/C"
  resultValue: "95 % of control"
- compound: "COc1ccccc1C(=O)N/N=C/c1cccc([N+](=O)[O-])c1"
  testedTarget: "L1210 leukemia ip in BDF1 mice, survival T/C"
  resultValue: "89 % of control"
- compound: "O=S(=O)(CBr)CC(Cl)c1ccccc1 (stereo unspecified)"
  testedTarget: "L1210 leukemia ip in BDF1 mice, survival T/C"
  resultValue: "100 % of control"

Would you mind telling me what T/C value was observed for Cc1c(Cl)cccc1NC(=O)C1CC(Br)C(Br)CC1C(=O)O (stereo unspecified) ?
95 % of control

Can you check OCC1(Br)CCC(Br)(CO)CC1 (stereo unspecified) next?
107 % of control

And the next one, Cc1cc(OCC(N)=O)ccc1Cl ?
98 % of control

* * *

test system: L1210 leukemia ip in BDF1 mice, survival T/C; test: NCI In Vivo Anticancer Drug Screen. Data for tumor model L1210 Leukemia (intraperitoneal) in B6D2F1 (BDF1) mice; conditions: endpoint: mean survival time; dose: 200.0 mg/kg/injection; schedule: Q01DX001 (ip); vehicle: saline; higher = longer survival
Toxic doses and inconclusive results are not listed.
parameterMeasured: T/C

- molecule: "COc1ccc(C(C)=O)c(OC)c1"
  testedTarget: "L1210 leukemia ip in BDF1 mice, survival T/C"
  resultValue: "98 % of control"
- molecule: "CS(=O)(=O)OCC1CCCO1 (stereo unspecified)"
  testedTarget: "L1210 leukemia ip in BDF1 mice, survival T/C"
  resultValue: "98 % of control"
- molecule: "COc1cc([N+](=O)[O-])cc2c(C)cc(=O)[nH]c12"
  testedTarget: "L1210 leukemia ip in BDF1 mice, survival T/C"
  resultValue: "99 % of control"
- molecule: "COc1ccc2c3c1OC1C4(OC)CCC5(c6c(O)ccc(O)c64)C(C2)N(C)CCC315 (stereo unspecified)"
  testedTarget: "L1210 leukemia ip in BDF1 mice, survival T/C"
  resultValue: "96 % of control"
- molecule: "O=[N+]([O-])/C=C\\c1ccc2c(c1)OCO2"
  testedTarget: "L1210 leukemia ip in BDF1 mice, survival T/C"
  resultValue: "119 % of control"

Lab note: next molecule to report on.
Record request: T/C value, item CCOC(=O)C1C(=O)N(O)c2cnccc21 (stereo unspecified)
107 % of control

* * *

tested on: L1210 leukemia ip in BDF1 mice, survival T/C; assay: NCI In Vivo Anticancer Drug Screen. Data for tumor model L1210 Leukemia (intraperitoneal) in B6D2F1 (BDF1) mice; details: endpoint: mean survival time; dose: 200.0 mg/kg/injection; schedule: Q04DX003 (ip); vehicle: saline with Tween-80; higher = longer survival
Inconclusive results and toxic doses are left out.
parameterMeasured: T/C

- compound: "O=C(Nc1ccc(S(=O)(=O)F)cc1)Oc1ccc([N+](=O)[O-])cc1"
  resultValue: "98 % of control"
- compound: "Cc1ccc(CO)cc1C"
  resultValue: "93 % of control"
- compound: "OCC1(Br)CCC(Br)(CO)CC1 (centres undefined)"
  resultValue: "98 % of control"
- compound: "O=C(O)c1cccc2cccc(-c3c4ccc(=O)c(O)c-4oc4c(O)c(O)ccc34)c12"
  resultValue: "92 % of control"
- compound: "Brc1c(N=Cc2ccccc2)ccc2ccccc12"
  resultValue: "102 % of control"

State the recorded T/C for this entry: O=S1c2ccccc2S(=O)c2ccccc21 (centres undefined)
91 % of control

Can you handle CCCCCCCCC(=O)Nc1cccc(O)c1 next?
101 % of control

Then CCSC(=O)N1c2ccc(C)cc2C=CC1C#N (centres undefined) ?
89 % of control

Next compound up: Nc1nc(C=O)c(CCc2ccccc2)c(=O)[nH]1
97 % of control

What about this compound? CCC(C)NC(=O)/C=C/C(=O)NC(C)CC (centres undefined)
100 % of control

# iterate: COc1cc(/C=N/Nc2ccc([N+](=O)[O-])cc2)cc(OC)c1OC
89 % of control

Request: Clc1ccccc1OCC1CO1 (centres undefined)
98 % of control

And for NC(=O)c1nc2n(c1N)CCC2 ?
100 % of control

One more compound: CC(C)(O)C/C=C/c1ccccc1
103 % of control

Input NCC(=O)c1ccc(OC(=O)c2ccccc2)cc1
95 % of control

Note, next up: CCCCCCCCCCCCCCCCCCN1C(=O)C2C(C1=O)C1(Cl)C(Cl)=C(Cl)C2(Cl)C1(Cl)Cl (centres undefined)
93 % of control

* * *

# T/C per record follows
Test system: L1210 leukemia ip in BDF1 mice, survival T/C
Assay: NCI In Vivo Anticancer Drug Screen. Data for tumor model L1210 Leukemia (intraperitoneal) in B6D2F1 (BDF1) mice
Conditions: endpoint: mean survival time; dose: 100.0 mg/kg/injection; schedule: Q04DX003 (ip); vehicle: Klucel (hydroxypropylcellulose) (HPC); higher = longer survival
Protocol: The antitumor activity of compounds was measured in mice bearing transplantable tumors. Survival or tumor size were measured and the results are expressed as the measurement made in the treated group (T) divided by the measurement made in the vehicle treated control group (C). The tumor model used in this assay is L1210 Leukemia (intraperitoneal) in B6D2F1 (BDF1) mice
Toxic doses and inconclusive results are not listed.

- smilesEntry: "O=c1cc(-c2ccccc2)nc(Nc2nc3ccc([N+](=O)[O-])cc3[nH]2)[nH]1"
  T/C: "100 % of control"
- smilesEntry: "CCN(CCP(c1ccccc1)c1ccccc1)CCP(c1ccccc1)c1ccccc1"
  T/C: "122 % of control"
- smilesEntry: "c1ccc(-c2nc3ccccc3s2)nc1"
  T/C: "109 % of control"

I'd like to know its T/C. The molecule in question is Cc1ccc(NS(=O)(=O)c2ccc(F)cc2)c(C)c1
100 % of control

Next entry: CCOC(=O)Nc1cc(Nc2ccc(Cl)cc2)c2nc(-c3ccc(Cl)cc3)c(-c3ccc(Cl)cc3)nc2n1
98 % of control

Can you check CN(C)CCCN=NNc1nc[nH]c1C(N)=O next?
108 % of control

Repeat for the following molecule: CCCOc1ccc(Nc2c3ccccc3nc3ccccc23)cc1
102 % of control

* * *

test system: L1210 leukemia ip in BDF1 mice, survival T/C; experiment: NCI In Vivo Anticancer Drug Screen. Data for tumor model L1210 Leukemia (intraperitoneal) in B6D2F1 (BDF1) mice; conditions: endpoint: mean survival time; dose: 200.0 mg/kg/injection; schedule: Q04DX003 (ip); vehicle: saline; higher = longer survival
Toxic doses and inconclusive results are not listed.
parameterMeasured: T/C

Record excerpt, results attached:
- molecule: "CSc1ccc(NC(=O)Nc2ccccc2C(N)=O)cc1"
  T/C: "98 % of control"
- molecule: "CC1=NN(c2ccc(S(=O)(=O)O)cc2)C(=O)/C1=C/c1ccc(Cl)cc1"
  T/C: "102 % of control"
- molecule: "c1cncc(CNc2ncn[nH]2)c1"
  T/C: "103 % of control"
- molecule: "Nc1ccc(C(=O)O)c([N+](=O)[O-])c1"
  T/C: "93 % of control"
- molecule: "CCOC(=O)N1C=Cn2c(cnc2C)C1OCC (centres undefined)"
  T/C: "94 % of control"
- molecule: "CC(=O)Nc1cccc(C(=O)O)c1[N+](=O)[O-]"
  T/C: "106 % of control"
- molecule: "Cc1cc(=O)c2c(=O)[nH][nH]c2[nH]1"
  T/C: "105 % of control"
- molecule: "CNS(=O)(=O)c1ccc(C)cc1"
  T/C: "100 % of control"

State the recorded T/C for this entry: Cc1cccc2c1NC(C)C2C (centres undefined)
93 % of control

Continue with C[N+]1(C)C2CC(=O)CC1C1CC12 (centres undefined)
103 % of control

Now consider NCCc1ccc2c(c1)OCO2 .
102 % of control

Moving on to the next molecule: CCC(C)(C)c1cc(Sc2cc(C(C)(C)CC)cc(C(C)(C)CC)c2O)c(O)c(C(C)(C)CC)c1
100 % of control

What would you report for CC(=O)Nc1c(O)c(Cl)c(Cl)c(Cl)c1Cl ?
101 % of control

Could you do the same for CC(=O)Nc1cc(C)c(Cl)cc1Cl , please?
105 % of control
